Target: Cav1.2/β3/α2δ (Homo sapiens, UniProt Q13936)
Construct: expressed in transfected cells; host or cells: Xenopus laevis oocytes (cRNA injection, Cav1.2:β3:α2δ 2:1:1 by weight)
Sequence (Q13936 1-2138 isoform Q13936-20): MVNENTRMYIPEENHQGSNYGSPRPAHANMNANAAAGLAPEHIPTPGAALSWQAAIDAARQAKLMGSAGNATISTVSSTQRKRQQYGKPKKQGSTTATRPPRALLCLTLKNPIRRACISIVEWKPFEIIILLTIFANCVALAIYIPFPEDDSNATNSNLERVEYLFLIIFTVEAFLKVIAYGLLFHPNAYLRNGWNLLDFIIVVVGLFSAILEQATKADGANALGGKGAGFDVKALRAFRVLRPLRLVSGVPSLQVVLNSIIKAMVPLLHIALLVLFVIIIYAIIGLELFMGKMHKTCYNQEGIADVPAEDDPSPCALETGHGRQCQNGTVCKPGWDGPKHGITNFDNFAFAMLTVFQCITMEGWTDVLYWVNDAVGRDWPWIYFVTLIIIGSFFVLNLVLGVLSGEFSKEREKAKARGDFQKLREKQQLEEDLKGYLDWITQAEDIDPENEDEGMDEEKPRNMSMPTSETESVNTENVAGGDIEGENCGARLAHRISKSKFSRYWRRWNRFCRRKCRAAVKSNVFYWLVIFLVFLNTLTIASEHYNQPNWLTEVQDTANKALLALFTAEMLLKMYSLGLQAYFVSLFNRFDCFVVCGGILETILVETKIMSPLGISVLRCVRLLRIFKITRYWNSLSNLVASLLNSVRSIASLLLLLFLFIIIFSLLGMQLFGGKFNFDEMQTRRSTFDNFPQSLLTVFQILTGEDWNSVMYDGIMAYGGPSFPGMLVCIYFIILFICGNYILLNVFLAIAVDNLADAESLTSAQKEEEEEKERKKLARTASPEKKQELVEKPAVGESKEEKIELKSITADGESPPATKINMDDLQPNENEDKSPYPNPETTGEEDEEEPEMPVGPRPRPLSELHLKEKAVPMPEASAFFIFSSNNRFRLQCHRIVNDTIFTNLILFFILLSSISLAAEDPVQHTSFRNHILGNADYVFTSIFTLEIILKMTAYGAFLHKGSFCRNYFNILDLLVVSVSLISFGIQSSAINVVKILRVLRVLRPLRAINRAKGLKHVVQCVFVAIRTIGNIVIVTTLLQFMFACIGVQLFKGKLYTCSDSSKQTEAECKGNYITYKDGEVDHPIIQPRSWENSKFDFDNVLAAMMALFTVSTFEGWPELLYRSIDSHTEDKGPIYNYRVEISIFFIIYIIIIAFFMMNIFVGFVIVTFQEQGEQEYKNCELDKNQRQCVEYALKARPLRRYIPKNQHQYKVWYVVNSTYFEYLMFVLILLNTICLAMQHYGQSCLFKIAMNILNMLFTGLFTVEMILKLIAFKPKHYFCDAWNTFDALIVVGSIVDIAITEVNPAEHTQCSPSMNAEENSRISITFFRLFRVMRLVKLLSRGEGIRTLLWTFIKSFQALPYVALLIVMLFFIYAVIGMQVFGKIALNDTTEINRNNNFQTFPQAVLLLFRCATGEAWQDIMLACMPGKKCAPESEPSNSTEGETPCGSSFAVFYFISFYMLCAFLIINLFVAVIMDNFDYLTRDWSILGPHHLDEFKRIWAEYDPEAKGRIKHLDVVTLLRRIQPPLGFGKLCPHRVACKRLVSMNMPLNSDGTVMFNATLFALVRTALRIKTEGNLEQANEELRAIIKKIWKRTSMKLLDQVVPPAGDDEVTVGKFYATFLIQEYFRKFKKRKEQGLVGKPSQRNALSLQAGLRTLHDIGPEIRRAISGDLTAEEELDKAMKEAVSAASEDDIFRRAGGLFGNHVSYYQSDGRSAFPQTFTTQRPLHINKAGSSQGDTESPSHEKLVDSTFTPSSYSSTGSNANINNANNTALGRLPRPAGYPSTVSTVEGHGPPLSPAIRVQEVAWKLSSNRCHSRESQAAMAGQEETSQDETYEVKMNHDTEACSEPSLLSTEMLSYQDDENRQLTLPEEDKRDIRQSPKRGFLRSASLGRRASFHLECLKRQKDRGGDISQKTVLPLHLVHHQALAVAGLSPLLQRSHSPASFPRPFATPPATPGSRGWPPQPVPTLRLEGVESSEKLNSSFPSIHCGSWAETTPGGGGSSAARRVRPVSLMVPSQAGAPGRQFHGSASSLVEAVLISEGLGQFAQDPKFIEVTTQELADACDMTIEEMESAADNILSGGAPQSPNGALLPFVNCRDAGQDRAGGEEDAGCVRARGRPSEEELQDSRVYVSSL
Sequence (P54286 whole entry partner): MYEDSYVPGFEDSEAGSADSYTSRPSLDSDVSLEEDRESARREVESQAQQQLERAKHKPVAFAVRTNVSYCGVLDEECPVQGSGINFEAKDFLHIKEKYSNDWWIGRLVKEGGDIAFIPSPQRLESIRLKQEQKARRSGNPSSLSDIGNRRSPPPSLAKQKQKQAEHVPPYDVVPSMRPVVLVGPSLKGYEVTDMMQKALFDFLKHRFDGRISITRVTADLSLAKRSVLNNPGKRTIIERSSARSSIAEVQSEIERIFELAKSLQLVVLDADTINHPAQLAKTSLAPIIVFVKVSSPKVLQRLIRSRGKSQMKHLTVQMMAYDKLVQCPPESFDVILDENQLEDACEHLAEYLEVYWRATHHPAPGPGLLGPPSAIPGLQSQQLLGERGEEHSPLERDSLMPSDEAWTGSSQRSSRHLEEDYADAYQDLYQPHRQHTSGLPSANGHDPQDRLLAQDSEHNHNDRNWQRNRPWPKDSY
Sequence (P13806 27-960 partner): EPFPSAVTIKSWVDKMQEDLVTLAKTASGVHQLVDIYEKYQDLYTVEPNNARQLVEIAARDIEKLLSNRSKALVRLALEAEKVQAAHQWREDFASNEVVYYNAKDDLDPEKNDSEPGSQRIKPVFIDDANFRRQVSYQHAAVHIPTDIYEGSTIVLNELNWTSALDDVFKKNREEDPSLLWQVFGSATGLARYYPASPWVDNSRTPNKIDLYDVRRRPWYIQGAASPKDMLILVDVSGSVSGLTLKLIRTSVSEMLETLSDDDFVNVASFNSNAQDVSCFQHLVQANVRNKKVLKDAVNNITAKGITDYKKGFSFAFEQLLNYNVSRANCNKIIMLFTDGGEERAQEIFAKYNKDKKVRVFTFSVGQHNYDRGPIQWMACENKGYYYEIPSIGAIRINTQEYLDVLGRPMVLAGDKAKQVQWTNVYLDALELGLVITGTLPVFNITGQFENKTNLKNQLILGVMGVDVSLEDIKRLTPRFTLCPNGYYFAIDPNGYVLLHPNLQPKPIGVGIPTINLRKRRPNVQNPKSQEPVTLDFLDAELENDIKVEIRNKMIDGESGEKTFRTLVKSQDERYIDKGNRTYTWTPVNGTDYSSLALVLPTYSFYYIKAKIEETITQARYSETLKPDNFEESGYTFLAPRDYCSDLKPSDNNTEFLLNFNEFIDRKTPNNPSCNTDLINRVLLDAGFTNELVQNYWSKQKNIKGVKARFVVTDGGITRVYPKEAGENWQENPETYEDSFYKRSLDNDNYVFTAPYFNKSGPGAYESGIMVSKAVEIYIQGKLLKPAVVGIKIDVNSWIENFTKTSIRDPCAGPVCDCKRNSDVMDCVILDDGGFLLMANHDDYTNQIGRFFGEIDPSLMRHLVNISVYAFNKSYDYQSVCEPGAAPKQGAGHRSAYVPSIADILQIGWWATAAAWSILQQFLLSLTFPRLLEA
Sequence (P13806 961-1106 partner): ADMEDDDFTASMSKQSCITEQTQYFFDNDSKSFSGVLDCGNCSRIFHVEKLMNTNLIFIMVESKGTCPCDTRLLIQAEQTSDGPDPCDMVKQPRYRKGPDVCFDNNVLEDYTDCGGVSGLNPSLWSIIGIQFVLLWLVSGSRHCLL
Assay: Two-electrode voltage clamp of Cav1.2/β3/α2δ expressed in Xenopus oocytes (Ba2+ as charge carrier)
Assay type: cell-based
Details: 0.2 μM
Procedure: Molecular Biology cRNA encoding Kv7.1 (UniProt: P51787), KCNE1 (UniProt: P15382.1), Nav1.5 (UniProt: Q14524.1), Nav β1 (UniProt: […]), Nav β3 (UniProt: […]), Cav1.2 (GenBank: CAA84346), Cav β3 (Uniprot: P54286), Cav β2 (Uniprot: P54288), and Cav α2δ (Uniprot: P13806) were transcribed using the mMessage mMachine T7 kit (Ambion). […] Xenopus laevis oocytes were recorded in the two-electrode voltage clamp (TEVC) configuration. […]
PARAMETER_MEASURED: Gmax/Gmax0

Worked cases, Gmax/Gmax0 given:
CC/C=C\C/C=C\C/C=C\C/C=C\C/C=C\C/C=C\CCC(=O)NCC(=O)O; 1.0 ± 0.1
CCCCC/C=C\C/C=C\CCCCCCCC(=O)NCCS(=O)(=O)O; 1.0 ± 0.02
CCCCC/C=C\C/C=C\C/C=C\C/C=C\CCCC(=O)NCCS(=O)(=O)O; 0.9 ± 0.02
CCCCC/C=C\C/C=C\CC/C=C\CCCC(=O)NCC(=O)O; 0.9 ± 0.1

Record for CCCCC/C=C\C/C=C\CCCCCCCC(=O)NCC(=O)O under target or system Cav1.2/β3/α2δ (Homo sapiens, UniProt Q13936): Gmax/Gmax0 reported as 1.1 ± 0.03

// Gmax/Gmax0 (Cav1.2/β3/α2δ (Homo sapiens, UniProt Q13936)) for CC/C=C\C/C=C\C/C=C\C/C=C\C/C=C\C/C=C\CCC(=O)NCCS(=O)(=O)O = 1.0 ± 0.05

// returns Gmax/Gmax0 for CCCCC/C=C\C/C=C\CC/C=C\CCCC(=O)NCCS(=O)(=O)O with Cav1.2/β3/α2δ (Homo sapiens, UniProt Q13936); value = 0.9 ± 0.1

* * *

molecular target: Kv7.1/KCNE1 (Homo sapiens, UniProt P51787); construct: cRNA encoding Kv7.1 (UniProt: P51787), KCNE1 (UniProt: P15382.1); expressed in transfected cells; host or cells: Xenopus laevis oocytes (cRNA injection, Kv7.1:KCNE1 3:1 by weight); test: Two-electrode voltage clamp of Kv7.1/KCNE1 expressed in Xenopus oocytes; format: cell-based; set-up: unit of the concentration uncertain; conditions: 0.7 μM
PARAMETER_MEASURED: Fitted slope factor of conductance vs voltage relationship (mV)
Your answer should be a plain number; it is taken to be in mV.

CCCCC/C=C\C/C=C\CC/C=C\CCCC(=O)NCCS(=O)(=O)O [Pin-taurine]; 17.7
CC/C=C\C/C=C\C/C=C\C/C=C\C/C=C\C/C=C\CCC(=O)NCCS(=O)(=O)O [DHA-taurine]; 18.6
CCCCC/C=C\C/C=C\CC/C=C\CCCC(=O)NCC(=O)O [Pin-glycine]; 17.8
CCCCC/C=C\C/C=C\C/C=C\C/C=C\CCCC(=O)NCCS(=O)(=O)O [N-AT, N-arachidonoyl taurine]; 17.2
CCCCC/C=C\C/C=C\CCCCCCCC(=O)NCC(=O)O [Lin-glycine]; 19.0
CCCCC/C=C\C/C=C\CCCCCCCC(=O)NCCS(=O)(=O)O [Lin-taurine, Linoleoyl taurine]; 17.7

# input for lookup
Log: Kv7.1/KCNE1 (Homo sapiens, UniProt P51787), compound CC/C=C\C/C=C\C/C=C\C/C=C\C/C=C\C/C=C\CCC(=O)NCC(=O)O [DHA-glycine, docosahexaenoyl glycine] , Fitted slope factor of conductance vs voltage relationship = 16.6

* * *

Target: Kv7.1/KCNE1 (Homo sapiens, UniProt P51787)
Construct: cRNA encoding Kv7.1 (UniProt: P51787), KCNE1 (UniProt: P15382.1); expressed in transfected cells; host or cells: Xenopus laevis oocytes (cRNA injection, Kv7.1:KCNE1 3:1 by weight)
Test: Two-electrode voltage clamp of Kv7.1/KCNE1 expressed in Xenopus oocytes
Format: cell-based
Conditions: 0.7 μM
Description: Molecular Biology cRNA encoding Kv7.1 (UniProt: P51787), KCNE1 (UniProt: P15382.1), Nav1.5 (UniProt: Q14524.1), Nav β1 (UniProt: […]), Nav β3 (UniProt: […]), Cav1.2 (GenBank: CAA84346), Cav β3 (Uniprot: P54286), Cav β2 (Uniprot: P54288), and Cav α2δ (Uniprot: P13806) were transcribed using the mMessage mMachine T7 kit (Ambion). […] Xenopus laevis oocytes were recorded in the two-electrode voltage clamp (TEVC) configuration. […]
Mark MET for reported ΔV0.5 (voltage dependence of activation) of -3 mV or greater; mark NOT MET for anything smaller.

CCCCC/C=C\C/C=C\CCCCCCCC(=O)NCCS(=O)(=O)O [Lin-taurine, Linoleoyl taurine]; MET
CCCCC/C=C\C/C=C\CC/C=C\CCCC(=O)NCC(=O)O [Pin-glycine]; MET
CCCCC/C=C\C/C=C\C/C=C\C/C=C\CCCC(=O)NCCS(=O)(=O)O [N-AT, N-arachidonoyl taurine]; MET
CCCCC/C=C\C/C=C\CC/C=C\CCCC(=O)NCCS(=O)(=O)O [Pin-taurine]; MET

Task: Is it the case that CC/C=C\C/C=C\C/C=C\C/C=C\C/C=C\C/C=C\CCC(=O)NCCS(=O)(=O)O [DHA-taurine] has ΔV0.5 (voltage dependence of activation) reaching or exceeding -3 mV?
Output: NOT MET

Task: Hi team, for CCCCC/C=C\C/C=C\CCCCCCCC(=O)NCC(=O)O [Lin-glycine] , is the recorded ΔV0.5 (voltage dependence of activation) at or above -3 mV?
Output: NOT MET

* * *

biological target: Kv7.1/KCNE1 (Homo sapiens, UniProt P51787); construct: cRNA encoding Kv7.1 (UniProt: P51787), KCNE1 (UniProt: P15382.1); expressed in transfected cells; host or cells: Xenopus laevis oocytes (cRNA injection, Kv7.1:KCNE1 3:1 by weight); experiment: Two-electrode voltage clamp of Kv7.1/KCNE1 expressed in Xenopus oocytes; format: cell-based; conditions: 0.2 μM
The entries below come with measured ΔV0.5 (voltage dependence of activation) values attached.
Give a bare numeral; the unit mV is implied.

Consider the following illustrative entries.
CCCCC/C=C\C/C=C\CCCCCCCC(=O)NCCS(=O)(=O)O; 1.3
CCCCC/C=C\C/C=C\CCCCCCCC(=O)NCC(=O)O; -2.7
CCCCC/C=C\C/C=C\CC/C=C\CCCC(=O)NCC(=O)O; 3.9
CC/C=C\C/C=C\C/C=C\C/C=C\C/C=C\C/C=C\CCC(=O)NCCS(=O)(=O)O; -1.5
CC/C=C\C/C=C\C/C=C\C/C=C\C/C=C\C/C=C\CCC(=O)NCC(=O)O; -2.0
CCCCC/C=C\C/C=C\CC/C=C\CCCC(=O)NCCS(=O)(=O)O; 2.6

Kindly consider the entry below.
response.value for CCCCC/C=C\C/C=C\C/C=C\C/C=C\CCCC(=O)NCCS(=O)(=O)O (field: ΔV0.5 (voltage dependence of activation)) = 0.7

* * *

Each entry below carries its recorded ΔV0.5 (voltage dependence of activation).
biological target: Kv7.1/KCNE1 (Homo sapiens, UniProt P51787); construct: cRNA encoding Kv7.1 (UniProt: P51787), KCNE1 (UniProt: P15382.1); expressed in transfected cells; host or cells: Xenopus laevis oocytes (cRNA injection, Kv7.1:KCNE1 3:1 by weight); experiment: Two-electrode voltage clamp of Kv7.1/KCNE1 expressed in Xenopus oocytes; type: cell-based; conditions: 20 μM
Number only, in mV; omit the unit.

Below, 6 compounds whose answers are already recorded.
CCCCC/C=C\C/C=C\C/C=C\C/C=C\CCCC(=O)NCCS(=O)(=O)O [N-AT, N-arachidonoyl taurine]; -8.5
CC/C=C\C/C=C\C/C=C\C/C=C\C/C=C\C/C=C\CCC(=O)NCCS(=O)(=O)O [DHA-taurine]; -70.5
CCCCC/C=C\C/C=C\CCCCCCCC(=O)NCCS(=O)(=O)O [Lin-taurine, Linoleoyl taurine]; -73.1
CCCCC/C=C\C/C=C\CC/C=C\CCCC(=O)NCC(=O)O [Pin-glycine]; -19.9
CCCCC/C=C\C/C=C\CC/C=C\CCCC(=O)NCCS(=O)(=O)O [Pin-taurine]; -51.6
CC/C=C\C/C=C\C/C=C\C/C=C\C/C=C\C/C=C\CCC(=O)NCC(=O)O [DHA-glycine, docosahexaenoyl glycine]; -16.5

// ΔV0.5 (voltage dependence of activation) lookup, compound = CCCCC/C=C\C/C=C\CCCCCCCC(=O)NCC(=O)O [Lin-glycine] , result: -26.4
